# Test target: T1, RecE564 Y778A (Escherichia coli K12, UniProt P15032 564-866, Y778A)
# T1 sequence: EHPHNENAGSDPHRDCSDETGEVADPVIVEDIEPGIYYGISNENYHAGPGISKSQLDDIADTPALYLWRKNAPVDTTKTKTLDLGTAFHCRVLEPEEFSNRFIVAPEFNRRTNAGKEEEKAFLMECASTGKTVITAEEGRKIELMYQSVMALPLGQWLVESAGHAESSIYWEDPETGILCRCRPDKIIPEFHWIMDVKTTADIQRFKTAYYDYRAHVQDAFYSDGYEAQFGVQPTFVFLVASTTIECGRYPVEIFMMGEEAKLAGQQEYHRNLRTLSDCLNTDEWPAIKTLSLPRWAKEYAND
# Measurement protocol: fluorescence anisotropy
Measured quantity: pKd
Please keep in mind that pKd is minus log10 of the molar concentration; only the number is needed.

// query Give the measured pKd of F25 (dsDNA) DNA 1: TAGAGCTTAATTGCTGAATCTGGTG DNA 2: CACCAGATTCAGCAATTAAGCTCTA .
// result 6.89

Recorded values, source paper PMC2688778.
